The measurements presented in this section are drawn from patent US20230120736A1.

- TARGET_SYSTEM: T1, human CD98 ECD (Homo sapiens, UniProt P08195)
- T1 construct: Human CD98 ECD with C-terminal His-tag
- T1 sequence (P08195 with tags, fused parts or gaps): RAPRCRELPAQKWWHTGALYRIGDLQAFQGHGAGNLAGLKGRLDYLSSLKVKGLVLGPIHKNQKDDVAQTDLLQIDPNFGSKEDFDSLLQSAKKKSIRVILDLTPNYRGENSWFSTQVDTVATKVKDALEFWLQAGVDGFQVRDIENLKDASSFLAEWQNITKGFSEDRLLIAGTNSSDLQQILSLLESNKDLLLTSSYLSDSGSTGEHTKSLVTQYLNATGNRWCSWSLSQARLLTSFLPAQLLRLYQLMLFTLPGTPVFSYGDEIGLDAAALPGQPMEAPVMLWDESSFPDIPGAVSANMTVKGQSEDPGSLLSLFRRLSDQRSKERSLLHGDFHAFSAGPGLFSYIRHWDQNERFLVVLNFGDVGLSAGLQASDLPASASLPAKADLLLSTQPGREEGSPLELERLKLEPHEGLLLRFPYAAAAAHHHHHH
- MEASUREMENT_PROTOCOL: Biacore surface plasmon resonance binding kinetics (anti-Fc capture)
- DETAILS: huCD98 ECD
# key: entry, value: ka
State the value with its unit after it.

huAb15v6 (antibody, V domains shown) VH: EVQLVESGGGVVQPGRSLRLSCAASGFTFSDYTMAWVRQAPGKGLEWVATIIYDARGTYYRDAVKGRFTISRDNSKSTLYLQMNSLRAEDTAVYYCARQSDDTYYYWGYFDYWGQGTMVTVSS VL: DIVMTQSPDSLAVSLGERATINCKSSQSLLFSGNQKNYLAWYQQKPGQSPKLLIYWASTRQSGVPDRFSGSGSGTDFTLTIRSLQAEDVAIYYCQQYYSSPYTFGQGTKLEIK
38000 M⁻¹ s⁻¹

Problem: // ka lookup, key: huAb101: "heavy chain variable sequence of huAb101 is provided in SEQ ID NO: 106"; "light chain variable sequence ... in SEQ ID NO: 107" (antibody, V domains shown) VH: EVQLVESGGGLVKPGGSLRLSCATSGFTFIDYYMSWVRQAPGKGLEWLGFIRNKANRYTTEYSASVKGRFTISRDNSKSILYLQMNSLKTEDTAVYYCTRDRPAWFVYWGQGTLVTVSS VL: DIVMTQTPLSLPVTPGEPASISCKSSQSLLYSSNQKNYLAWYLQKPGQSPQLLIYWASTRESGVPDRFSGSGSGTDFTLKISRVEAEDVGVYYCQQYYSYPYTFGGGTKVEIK
Solution: 290000 M⁻¹ s⁻¹

Problem: Field entry: huAb15v3 (antibody, V domains shown) VH: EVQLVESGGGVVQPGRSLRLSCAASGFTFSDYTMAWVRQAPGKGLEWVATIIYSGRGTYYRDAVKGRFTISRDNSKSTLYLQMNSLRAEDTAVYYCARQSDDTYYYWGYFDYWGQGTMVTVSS VL: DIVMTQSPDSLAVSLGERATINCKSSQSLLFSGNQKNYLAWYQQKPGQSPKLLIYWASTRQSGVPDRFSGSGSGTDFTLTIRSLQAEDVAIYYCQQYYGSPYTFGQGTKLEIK
Solution: 44000 M⁻¹ s⁻¹

Problem: Field entry: huAb15v4 (antibody, V domains shown) VH: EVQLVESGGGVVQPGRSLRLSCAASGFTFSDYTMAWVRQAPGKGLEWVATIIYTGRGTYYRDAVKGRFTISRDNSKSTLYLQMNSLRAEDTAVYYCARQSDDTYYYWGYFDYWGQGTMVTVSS VL: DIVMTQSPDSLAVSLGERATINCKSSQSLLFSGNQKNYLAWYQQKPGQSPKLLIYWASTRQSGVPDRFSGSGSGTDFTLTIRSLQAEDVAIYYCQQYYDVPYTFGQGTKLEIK
Solution: 35000 M⁻¹ s⁻¹

Problem: Field entry: huAb15v5 (antibody, V domains shown) VH: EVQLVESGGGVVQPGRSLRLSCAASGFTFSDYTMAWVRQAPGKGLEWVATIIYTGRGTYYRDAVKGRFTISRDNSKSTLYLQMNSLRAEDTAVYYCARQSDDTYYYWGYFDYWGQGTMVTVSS VL: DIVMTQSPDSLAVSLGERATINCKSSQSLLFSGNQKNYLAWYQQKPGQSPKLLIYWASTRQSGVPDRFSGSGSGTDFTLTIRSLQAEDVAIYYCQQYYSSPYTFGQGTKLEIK
Solution: 41000 M⁻¹ s⁻¹
